- measurementProtocol: HepG2 cytotoxicity, primary screen, cytotoxicity control for P. falciparum antimalarial project, cell-based, ATP luminescence (AID 2303)
- conditions: HepG2 viability, 24-48 h, at 10 µM, active compounds read high
Hi! Just check whether inhibition is below 20%. Below gives criterion met, equal or above gives criterion not met.

INSERT INTO assay_data (molecule, qualitativelabel) VALUES
  ('CCCCCn1c(Sc2ccc(C#N)c([N+](=O)[O-])c2)nnc1-c1ccccc1', 'criterion not met');

I wonder whether COc1cc(NCC(O)CNc2cc(OC)c3ccccc3n2)nc2ccccc12 has inhibition below 20%. Can you tell?
criterion not met

I wonder whether Brc1ccc(Nc2nc3ccccc3nc2Nc2ccc(Br)cc2)cc1 has inhibition below 20%. Can you tell?
criterion met
